Test system: Caco-2
METHOD_NOTES: Cell viability by XTT
CONDITION_DETAILS: read-out: Activity (TC50); Caco-2, six concentration dose response, Table 9
Reported CC50 by item:
Write the value in µM as a bare number.

> print(dat)
                         compound.structure  measure.unit  meas.value
1  Cc1ccc(NC(=O)[C@H](CCCCN)NCc2ccc(NC(=O)Nc3ccncc3)cc2)cc1            µM         8.7

# input for lookup
(Q) Form field: CC50 recorded for Cc1ccc(NC(=O)[C@H](CCCCN)NC(=O)Cc2ccc(-c3ccccc3)cc2)cc1 with Caco-2 (enter value)
(A) 9.4

The values you see were collected from patent US20080171783A1.
